assay: Growth inhibition of human HL7702 cells at 100 uM after 120 hrs by MTT assay; type: cell-based; settings: HL7702 (L02) cells, read-out: GI
experimentalEndpoint: inhibition at 120 h, 100 µM
Reply with the number and its unit after it.

Would you mind giving inhibition at 120 h, 100 µM for every compound in the list below?
1. Cc1cc(C)nc(SCC(=O)Nc2cccc(COc3ccc(NC(=O)c4cccs4)cc3)c2)n1
2. Cc1cc(C)nc(SCC(=O)Nc2ccc(COc3ccccc3)cc2)n1

a:
["3%", "6%"]

* * *

I'd appreciate it if you could supply inhibition values for the items below.
Molecular target: NAD-dependent protein deacetylase sirtuin-2 (Homo sapiens)
Sequence (whole entry): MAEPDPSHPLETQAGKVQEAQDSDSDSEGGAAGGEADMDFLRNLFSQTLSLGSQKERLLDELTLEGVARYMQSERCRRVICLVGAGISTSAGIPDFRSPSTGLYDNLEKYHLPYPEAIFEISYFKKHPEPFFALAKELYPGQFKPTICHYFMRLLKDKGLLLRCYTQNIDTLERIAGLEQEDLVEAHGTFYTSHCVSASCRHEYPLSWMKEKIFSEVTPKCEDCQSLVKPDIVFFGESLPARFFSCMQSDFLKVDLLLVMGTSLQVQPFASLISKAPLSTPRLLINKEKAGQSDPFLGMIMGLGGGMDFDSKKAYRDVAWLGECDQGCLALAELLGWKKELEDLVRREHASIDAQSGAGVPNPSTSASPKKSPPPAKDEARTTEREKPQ
Assay: Inhibition of human SIRT2 at 50 uM
One number for each entry, in %.

Cc1cc(C)nc(SCC(=O)Nc2ccc(CNc3ccccc3)cc2)n1 :: 72
Cc1cc(C)nc(SCC(=O)Nc2cccc(COc3cccc4cccnc34)c2)n1 :: 73

Would you mind giving inhibition for every compound in the list below?
1. Cc1cc(C)nc(SCC(=O)Nc2ccc(C(=O)c3ccccc3)cc2)n1
2. Cc1cc(C)nc(SCC(=O)Nc2cccc(Oc3ccccc3)c2)n1
3. Cc1cc(C)nc(SCC(=O)Nc2ccc(C(O)c3ccccc3)cc2)n1 (stereo not drawn)

a:
1. 74
2. 92
3. 75

Would you mind giving inhibition for every compound in the list below?
1. Cc1cc(C)nc([S+]([O-])CC(=O)Nc2ccc(Oc3ccccc3)cc2)n1 (stereo not drawn)
2. Cc1cc(C)nc(SCC(=O)Nc2ccc(Cc3ccccc3)cc2)n1
3. Cc1cc(C)nc(SCC(=O)Nc2cccc(Cc3ccccc3)c2)n1

a:
1. 79
2. 74
3. 96

* * *

I'd appreciate it if you could supply inhibition values for the items below.
biological target: NAD-dependent protein deacetylase sirtuin-2 (Homo sapiens) (UniProt Q8IXJ6); test: Inhibition of human SIRT2 at 50 uM
Give bare numbers, in %.

Cc1cc(C)nc(SCC(=O)Nc2cccc(CNc3ccccc3)c2)n1 :: 90
Cc1cc(C)nc(SCC(=O)Nc2cccc(COc3ccc(NS(=O)(=O)C4CC4)cc3)c2)n1 :: 95
Cc1cc(C)nc(SCC(=O)Nc2ccc(NCc3ccccc3)cc2)n1 :: 55
Cc1cc(C)nc(SCC(=O)Nc2cccc(NCc3ccccc3)c2)n1 :: 95

Could you now look at the following compound, please?
q: Need inhibition, item Cc1cc(C)nc(SCC(=O)Nc2cccc(COc3ccc(NS(=O)(=O)c4ccccc4)cc3)c2)n1
a: 87

* * *

Target: NAD-dependent protein deacetylase sirtuin-1 (Homo sapiens, UniProt Q96EB6)
Sequence (Q96EB6 whole entry): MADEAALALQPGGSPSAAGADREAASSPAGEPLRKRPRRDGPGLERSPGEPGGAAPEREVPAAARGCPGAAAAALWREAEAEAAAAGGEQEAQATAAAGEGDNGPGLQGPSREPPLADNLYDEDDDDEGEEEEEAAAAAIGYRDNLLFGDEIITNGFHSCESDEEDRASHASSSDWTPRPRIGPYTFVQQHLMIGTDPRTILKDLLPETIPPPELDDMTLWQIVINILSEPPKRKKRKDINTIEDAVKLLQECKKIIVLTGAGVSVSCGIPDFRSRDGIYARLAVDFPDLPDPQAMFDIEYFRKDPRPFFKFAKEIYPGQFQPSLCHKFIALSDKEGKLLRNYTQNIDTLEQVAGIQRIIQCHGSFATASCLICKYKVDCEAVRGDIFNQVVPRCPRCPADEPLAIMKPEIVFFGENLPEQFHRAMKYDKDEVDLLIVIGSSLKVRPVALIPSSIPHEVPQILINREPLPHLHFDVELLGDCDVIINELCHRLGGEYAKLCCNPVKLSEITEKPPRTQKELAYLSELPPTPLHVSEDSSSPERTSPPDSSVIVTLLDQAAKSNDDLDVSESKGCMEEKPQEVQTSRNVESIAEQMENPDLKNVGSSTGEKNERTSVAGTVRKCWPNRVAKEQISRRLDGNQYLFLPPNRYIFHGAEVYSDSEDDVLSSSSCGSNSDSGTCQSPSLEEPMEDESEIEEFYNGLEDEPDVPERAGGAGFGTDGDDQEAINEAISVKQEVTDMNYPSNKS
pIC50: −log10 of the molar value.
experimentalEndpoint: pIC50

q: Need pIC50, item Cc1cc(C)nc(SCC(=O)Nc2cccc(COc3ccc(NC(=O)c4cccs4)cc3)c2)n1
a: < 3.52

* * *

I'd appreciate it if you could supply inhibition values for the items below.
biological target: NAD-dependent protein deacetylase sirtuin-2 (Homo sapiens); test: Inhibition of human SIRT2 at 50 uM
Reply with the number and its unit after it.

Cc1cc(C)nc(SCC(=O)Nc2cccc(COc3ccc4[nH]ncc4c3)c2)n1 :: 91%
Cc1cc(C)nc(SCC(=O)Nc2cccc(COc3ccccc3)c2)n1 :: 96%
Cc1cc(C)nc(SCC(=O)Nc2cccc(C(=O)c3ccccc3)c2)n1 :: 89%

Would you mind giving inhibition for every compound in the list below?
1. Cc1cc(C)nc(S(=O)(=O)CC(=O)Nc2ccc(Oc3ccccc3)cc2)n1
2. Cc1cc(C)nc(SCC(=O)Nc2cccc(NCc3cccs3)c2)n1

a:
21%
93%

* * *

molecular target: NAD-dependent protein deacetylase sirtuin-2 (Homo sapiens); test: Inhibition of human SIRT2 at 5 uM
// Not met strictly below 40% in inhibition; Met otherwise

Known results for compounds:
Cc1cc(C)nc(SCC(=O)Nc2cccc(COc3ccc4[nH]ncc4c3)c2)n1 :: Met
Cc1cc(C)nc(SCC(=O)Nc2cccc(OCc3ccccc3)c2)n1 :: Met
Cc1cc(C)nc(SCC(=O)Nc2cccc(COc3cccc4ccccc34)c2)n1 :: Met
CC(=O)Nc1ccc(OCc2cccc(NC(=O)CSc3nc(C)cc(C)n3)c2)cc1 :: Met
Cc1cc(C)nc(SCC(=O)Nc2cccc(C(O)c3ccccc3)c2)n1 (configuration not stated) :: Not met

q: Determine whether this compound has inhibition no lower than 40%: Cc1cc(C)nc(SCC(=O)Nc2cccc(CNc3ccccc3)c2)n1
a: Met

q: // repeat for Cc1cc(C)nc(SCC(=O)Nc2cccc(Oc3ccccc3)c2)n1 and report
a: Met

q: // repeat for Cc1cc(C)nc(SCC(=O)Nc2cccc(COc3ccc(NS(=O)(=O)C4CC4)cc3)c2)n1 and report
a: Met

* * *

molecular target: NAD-dependent protein deacetylase sirtuin-2 (Homo sapiens); assay: Inhibition of human SIRT2 at 50 uM
// Not fulfilled strictly below 80% in inhibition; Fulfilled otherwise

Known results for compounds:
Cc1cc(C)nc(SCC(=O)Nc2ccc(COc3ccccc3)cc2)n1 :: Not fulfilled
Cc1cc(C)nc(SCC(=O)Nc2cccc(OCc3ccccc3)c2)n1 :: Fulfilled
CC(=O)Nc1ccc(OCc2cccc(NC(=O)CSc3nc(C)cc(C)n3)c2)cc1 :: Fulfilled
Cc1cc(C)nc(SCC(=O)Nc2cccc(COc3ccc4ccccc4c3)c2)n1 :: Fulfilled
Cc1cc(C)nc(SCC(=O)Nc2cccc(Nc3ccccc3)c2)n1 :: Fulfilled

q: Determine whether this compound has inhibition no lower than 80%: Cc1ccc(C(=O)Nc2ccc(S(=O)(=O)O)c3cc(S(=O)(=O)O)cc(S(=O)(=O)O)c23)cc1NC(=O)c1cccc(NC(=O)Nc2cccc(C(=O)Nc3cc(C(=O)Nc4ccc(S(=O)(=O)O)c5cc(S(=O)(=O)O)cc(S(=O)(=O)O)c45)ccc3C)c2)c1
a: Not fulfilled

q: // repeat for Cc1cc(C)nc(SCC(=O)Nc2ccc(NCc3cccs3)cc2)n1 and report
a: Not fulfilled

* * *

Target: NAD-dependent protein deacetylase sirtuin-2 (Homo sapiens) (UniProt Q8IXJ6)
Sequence (whole entry): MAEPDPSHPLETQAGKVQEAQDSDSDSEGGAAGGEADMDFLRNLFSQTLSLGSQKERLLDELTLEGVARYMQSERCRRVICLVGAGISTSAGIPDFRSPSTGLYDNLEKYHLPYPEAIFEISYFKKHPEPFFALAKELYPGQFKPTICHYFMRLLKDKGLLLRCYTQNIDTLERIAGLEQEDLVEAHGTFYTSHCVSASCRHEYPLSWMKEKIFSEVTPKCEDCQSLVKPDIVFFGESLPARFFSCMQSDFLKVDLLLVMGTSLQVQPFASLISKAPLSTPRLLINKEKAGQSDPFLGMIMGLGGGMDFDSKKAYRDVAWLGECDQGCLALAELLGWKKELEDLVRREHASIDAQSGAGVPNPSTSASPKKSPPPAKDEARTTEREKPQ
Test: Inhibition of human SIRT2 at 50 uM
// f strictly below 60% in inhibition; t otherwise

Known results for compounds:
Cc1cc(C)nc(SCC(=O)Nc2ccc(OCc3ccccc3)cc2)n1 :: t
CC(=O)Nc1cccc(OCc2cccc(NC(=O)CSc3nc(C)cc(C)n3)c2)c1 :: t

q: Determine whether this compound has inhibition no lower than 60%: Cc1cc(C)nc(SCC(=O)Nc2ccc(NCc3ccco3)cc2)n1
a: f

q: // repeat for Cc1cc(C)nc(SCC(=O)Nc2ccc(NCc3ccncc3)cc2)n1 and report
a: f

q: // repeat for Cc1cc(C)nc(SCC(=O)Nc2ccc(Nc3ccccc3)cc2)n1 and report
a: t

q: // repeat for Cc1cc(C)nc(SCC(=O)Nc2cccc(C(O)c3ccccc3)c2)n1 (stereo unspecified) and report
a: t
